Reference for the values: patent US6770597B2

molecules and their reported crop damage rating RICE
Test system: upland rice (Oryza sp., var.Cocodrie, RICE)
measurement-protocol: Greenhouse herbicide screen, pre-emerge application, crop damage rating
Format: in vivo
measurement-setup: PRE emergent, 250 g ai/ha, 14 days after application, rating scale 0-100
Just the number.

[[record]]
molecule = "CC1CCCC(C)N1NC(=O)c1cc(-n2c(=O)cc(C(F)(F)F)n(C)c2=O)c(F)cc1Cl (stereo not shown) [Compound 1-16]"
measured = 98


Measured crop damage rating RICE of Cn1c(C(F)(F)F)cc(=O)n(-c2cc(C(=O)NN(Cc3ccccc3)Cc3ccccc3)c(Cl)cc2F)c1=O [Compound 1-29] : 10

Measured crop damage rating RICE of CC(=O)OC(=NN1C(C)CCCC1C)c1cc(-n2c(=O)cc(C(F)(F)F)n(C)c2=O)c(F)cc1Cl (stereo not shown) [Compound 4-9] : 15

---

Test system: lambsquarters (Chenopodium album, CHEAL)
measurement-protocol: Greenhouse herbicide screen, post-emerge application, phytotoxicity rating
Assay type: in vivo
measurement-setup: POST emergent, 63 g ai/ha, 14 days after application, scale 0-100
compounds and their reported phytotoxicity rating CHEAL
Just the number.

Example entries begin here.
[[record]]
compound = "CCOC(=O)NNC(=O)c1cc(-n2c(=O)cc(C(F)(F)F)n(C)c2=O)c(F)cc1Cl"
measured = 100

[[record]]
compound = "CC(=NN=C(OC(=O)C(Cl)Cl)c1cc(-n2c(=O)cc(C(F)(F)F)n(C)c2=O)c(F)cc1Cl)C(C)(C)C"
measured = 70

[[record]]
compound = "CC(=NNC(=O)c1cc(-n2c(=O)cc(C(F)(F)F)n(C)c2=O)c(F)cc1Cl)C(C)(C)C"
measured = 60

[[record]]
compound = "Cn1c(C(F)(F)F)cc(=O)n(-c2cc(C(=O)NN=C(C(C)(C)C)C(C)(C)C)c(Cl)cc2F)c1=O"
measured = 100

[[record]]
compound = "COC(=NN=C(C(C)(C)C)C(C)(C)C)c1cc(-n2c(=O)cc(C(F)(F)F)n(C)c2=O)c(F)cc1Cl"
measured = 100


Measured phytotoxicity rating CHEAL of `Cn1c(C(F)(F)F)cc(=O)n(-c2cc(C(=O)NN(Cc3ccccc3)Cc3ccccc3)c(Cl)cc2F)c1=O` : 100

Measured phytotoxicity rating CHEAL of `CN(NC(=O)c1cc(-n2c(=O)cc(C(F)(F)F)n(C)c2=O)c(F)cc1Cl)c1ccccc1` : 100

Measured phytotoxicity rating CHEAL of CC1CCCC(C)N1N=C(OC(=O)C(Cl)Cl)c1cc(-n2c(=O)cc(C(F)(F)F)n(C)c2=O)c(F)cc1Cl (stereo not drawn) : 100

---

Test system: velvetleaf (Abutilon theophrasti, ABUTH)
measurement-protocol: Greenhouse herbicide screen, pre-emerge application, phytotoxicity rating
Type: in vivo
measurement-setup: PRE emergent, 250 g ai/ha, 14 days after application, rating scale 0-100
endpoint-name: phytotoxicity rating ABUTH
Just the number.

Measured phytotoxicity rating ABUTH of `CN(C)NC(=O)c1cc(-n2c(=O)cc(C(F)(F)F)n(C)c2=O)ccc1Cl` : 99

Measured phytotoxicity rating ABUTH of `Cn1c(C(F)(F)F)cc(=O)n(-c2cc(C(=O)NN(Cc3ccccc3)Cc3ccccc3)c(Cl)cc2F)c1=O` : 100

Measured phytotoxicity rating ABUTH of `CC(=NNC(=O)c1cc(-n2c(=O)cc(C(F)(F)F)n(C)c2=O)c(F)cc1Cl)C(C)(C)C` : 100

Measured phytotoxicity rating ABUTH of `Cn1c(C(F)(F)F)cc(=O)n(-c2cc(C(=O)NN3CCCC3)c(Cl)cc2F)c1=O` : 100
